# measured on: T1, human CD4 on human PBMCs (human, UniProt P01730 26-458)
# T1 construct: whole, on cells; the CD4-positive gate was set with the control antibodies OKT4 and RPA-T4; also called hCD4
# test method notes: FACS, clonal hybridoma supernatant on human PBMCs
Please respond with reported % CD4 Stain for every item in the list.
Please answer in the form of a number followed by its unit of measurement.

- 75110_10O16A (antibody, V domains shown, Tested as clonal hybridoma supernatant from AlivaMab Mouse Kappa mice: human variable regions, human kappa, mouse Fc (detected with anti-mouse Fc gamma); also called 75110_10016A) VH: EVQLVESGGGLVQPGGSLRLSCAASGFTFSNSDMHWVRQATGKGLEWVSTIGTAGDTYYPGSVKGRFTISRENAKNSLYLQMNSLRAGDTAVYYCARGGLYYYGMDVWGQGTTVTVSS VL: ENVLTQSPGTLSLSPGERATLSCRASQSVSSSYLAWYQQKPGQAPRLLIYGASSRATGIPDRFSGSGSGTDFTLTISRLEPEDFAVYYCHQFGSSPFTFGPGTKVDIK: 37.2%
- 75110_12C19A (antibody, V domains shown, Tested as clonal hybridoma supernatant from AlivaMab Mouse Kappa mice: human variable regions, human kappa, mouse Fc) VH: EVQLVESGGGLVQPGGSLRLSCAASGFTFSSYWMSWVRQAPGKGLEWVANIKEDGSDKYYVDSVKGRFTISRDNAKNSLYLQMNSLRAEDTAVHYCVREGGQWLALDYWGQGTLVTVSS VL: DIQMTQSPSSVSGSVGDRVTITCRASQGISSWLAWYQQKPGKAPKLLIYGASSLQSGVPSRFSGSGSGTDFTLTISSLQPEDFVTYYCQQANSFPWTFGQGTKVEIK: 24.4%

Let's switch to this binder now.
The binder identified as 75110_13P21A (antibody, V domains shown, Tested as clonal hybridoma supernatant from AlivaMab Mouse Kappa mice: human variable regions, human kappa, mouse Fc) VH: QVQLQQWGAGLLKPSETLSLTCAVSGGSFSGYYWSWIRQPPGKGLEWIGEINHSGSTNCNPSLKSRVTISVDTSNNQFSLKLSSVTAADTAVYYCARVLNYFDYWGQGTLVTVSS VL: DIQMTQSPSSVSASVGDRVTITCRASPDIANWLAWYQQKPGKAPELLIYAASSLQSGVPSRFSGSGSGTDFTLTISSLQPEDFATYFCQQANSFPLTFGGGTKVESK registered its % CD4 Stain at 27.2%
